Every entry's value here was drawn from patent US20060069132A1.

- System: giant foxtail
- Method notes: Test C pre-/postemergence herbicide test
- Assay type: in vivo, Setaria faberi
- Details: 125 g ai/ha; scale 0 (no effect) to 100 (complete control); visual, 12 to 14 days; preemergence
Test readout: Plant response rating, Foxtail, Giant

Examples from the recorded data:
| Molecule | Plant response rating, Foxtail, Giant |
| --- | --- |
| CCc1nn(C(C)(C)C)cc1C(=O)Nc1cc(C(=O)N(CC)CC)ccc1F [Compound 223] | 70 |
| CCOC(=O)c1cccc(NC(=O)c2cc(C(C)(C)C)nn2CC)c1C [Compound 88] | 50 |
| C=CCNC(=O)c1cccc(NC(=O)c2cc(C(C)(C)C)nn2CC)c1 [Compound 46] | 60 |
| CCn1nc(C(C)(C)C)cc1C(=O)Nc1cccc(OC(F)F)c1 [Compound 332] | 20 |
| CCn1nc(C(C)(C)C)cc1C(=O)Nc1cc(C(=S)N(C)C)ccn1 [Compound 334] | 80 |

Prompt: Give the reported Plant response rating, Foxtail, Giant for C=CCNC(=O)c1cccc(NC(=O)c2sc(C(C)(C)C)nc2CC)c1 [Compound 207] (system: giant foxtail).
Response: 0

Prompt: Give the reported Plant response rating, Foxtail, Giant for CC(=NO)c1cccc(NC(=O)c2cc(C(C)(C)C)nn2CCF)c1 [Compound 115] (system: giant foxtail).
Response: 90

Prompt: Give the reported Plant response rating, Foxtail, Giant for CCN(C)C(=O)c1cccc(NC(=O)c2cc(C(C)(C)C)nn2CC)c1 [Compound 48] (system: giant foxtail).
Response: 0

Prompt: Give the reported Plant response rating, Foxtail, Giant for C#CCNC(=O)c1cccc(NC(=O)c2cc(C(C)(C)C)nn2CC)c1 [Compound 47] (system: giant foxtail).
Response: 70

Prompt: Give the reported Plant response rating, Foxtail, Giant for CCNC(=O)c1cccc(NC(=O)c2sc(C(C)(C)C)nc2C)c1 [Compound 198] (system: giant foxtail).
Response: 10

Prompt: Give the reported Plant response rating, Foxtail, Giant for CC(=NO)c1cccc(NC(=O)c2sc(C(C)(C)C)nc2C)c1 [Compound 195] (system: giant foxtail).
Response: 0

###

- Test system: morningglory
- Method notes: Test A pre-/postemergence herbicide test
- Type: in vivo, Ipomoea spp.
- Details: Postemergence, 500 g ai/ha; 0 to 100 scale, 0 no effect, 100 complete control
Item-by-item account of Morningglory plant response rating

Examples from the recorded data:
| Compound | Assay target | Morningglory plant response rating |
| --- | --- | --- |
| CCOC(=O)c1cccc(NC(=O)c2cc(C(C)(C)C)nn2CC)c1C [Compound 88] | morningglory | 35 |
| CCc1nn(C(C)(C)C)cc1C(=O)Nc1cc(C(=S)N(C)C)ccc1F [Compound 454] | morningglory | 50 |
| CCn1nc(C(C)(C)C)cc1C(=O)Nc1cccc(C(=O)OC(C)(C)C)c1 [Compound 98] | morningglory | 0 |
| C=CCNC(=O)c1cccc(NC(=O)c2sc(C(C)(C)C)nc2CC)c1 [Compound 207] | morningglory | 20 |

Prompt: Entry under review: C#CCOC(=O)c1cccc(NC(=O)c2cc(C(C)(C)C)nn2C)n1 [Compound 317] . Reported Morningglory plant response rating?
Response: 0

Prompt: Entry under review: CC(=NO)c1cc(NC(=O)c2cc(C(C)(C)C)nn2C)ccc1F [Compound 109] . Reported Morningglory plant response rating?
Response: 25

Prompt: Entry under review: COC(=O)c1cccc(NC(=O)c2sc(C(C)(C)C)nc2C)c1 [Compound 197] . Reported Morningglory plant response rating?
Response: 0

Prompt: Entry under review: CCc1nc(C(C)(C)C)sc1C(=O)Nc1cccc(C(=O)NCC(F)(F)F)c1 [Compound 206] . Reported Morningglory plant response rating?
Response: 0

Prompt: Entry under review: CC(=NO)c1cccc(NC(=O)c2cc(C(C)(C)C)nn2CCF)c1 [Compound 115] . Reported Morningglory plant response rating?
Response: 35
